target of assay: human recombinant mGluR5 (Homo sapiens, UniProt P41594)
Construct: expressed in transfected cells; host or cells: HEK 293 cell line
Sequence (P41594 21-1212): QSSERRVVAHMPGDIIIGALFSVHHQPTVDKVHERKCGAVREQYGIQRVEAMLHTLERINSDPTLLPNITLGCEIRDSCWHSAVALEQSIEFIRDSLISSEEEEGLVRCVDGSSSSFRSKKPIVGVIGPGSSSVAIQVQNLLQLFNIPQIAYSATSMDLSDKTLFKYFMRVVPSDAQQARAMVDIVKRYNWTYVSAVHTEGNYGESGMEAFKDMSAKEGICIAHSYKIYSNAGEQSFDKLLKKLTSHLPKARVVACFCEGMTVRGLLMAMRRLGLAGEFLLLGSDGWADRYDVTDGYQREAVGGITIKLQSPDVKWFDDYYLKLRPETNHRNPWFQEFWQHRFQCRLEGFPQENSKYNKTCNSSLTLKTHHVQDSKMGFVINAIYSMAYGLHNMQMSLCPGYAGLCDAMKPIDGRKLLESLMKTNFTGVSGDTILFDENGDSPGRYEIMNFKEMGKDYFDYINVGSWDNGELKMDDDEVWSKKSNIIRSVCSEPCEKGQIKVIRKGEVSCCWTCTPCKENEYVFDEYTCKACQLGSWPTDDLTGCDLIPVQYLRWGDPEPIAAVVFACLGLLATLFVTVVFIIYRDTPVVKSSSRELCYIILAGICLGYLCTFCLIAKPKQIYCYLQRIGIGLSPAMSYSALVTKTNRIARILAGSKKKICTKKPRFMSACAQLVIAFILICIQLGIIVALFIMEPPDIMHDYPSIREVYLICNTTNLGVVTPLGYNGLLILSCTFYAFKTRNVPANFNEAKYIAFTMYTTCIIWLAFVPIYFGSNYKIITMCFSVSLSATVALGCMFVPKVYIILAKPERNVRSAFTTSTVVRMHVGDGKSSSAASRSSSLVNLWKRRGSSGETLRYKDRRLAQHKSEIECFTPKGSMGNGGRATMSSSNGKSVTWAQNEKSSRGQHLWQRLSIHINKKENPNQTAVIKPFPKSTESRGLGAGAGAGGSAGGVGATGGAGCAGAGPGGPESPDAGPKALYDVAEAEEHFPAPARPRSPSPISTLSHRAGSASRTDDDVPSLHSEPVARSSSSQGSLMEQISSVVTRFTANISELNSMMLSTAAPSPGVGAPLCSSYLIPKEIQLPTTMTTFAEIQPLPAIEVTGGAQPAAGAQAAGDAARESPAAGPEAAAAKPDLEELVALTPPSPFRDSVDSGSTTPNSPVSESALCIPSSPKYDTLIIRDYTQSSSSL
protocol text: Positive modulation of mGluR5, calcium based FLIPR assay in HEK 293 cells
recorded conditions: EC50 of the modulation; HEK 293 cell line expressing human recombinant mGluR5; glutamate at approximately 5% basal stimulation; peak height of Ca release fluorescence signal
endpoint name: pEC50
Reminder that pEC50 is minus the log10 of a molar concentration.

Completed entries (count: 5):
COc1ccc(-c2cn(-c3ccccc3)c(CC(=O)N3CCN(c4cc(OC)ccn4)CC3)n2)cc1 :: 6.84
COc1ccc(-c2cn(-c3ccc(F)cc3)c(CC(=O)N3CCN(c4cc(OC)ccn4)CC3)n2)cc1 :: 7.40
Cc1cc(-c2cn(-c3ccc(F)cc3)c(CC(=O)N3CCN(c4ncccn4)CC3)n2)ccc1F :: 7.68
O=C(Cc1nc(-c2ccc(F)cc2)cn1-c1ccc(F)cc1)N1CCN(c2ncncn2)CC1 :: 7.28
COc1ccc(-c2cn(-c3ccc(F)cc3)c(CC(=O)N3CCN(c4ncccn4)CC3)n2)cc1 :: 7.70

// pEC50 lookup, compound = COc1ccnc(N2CCN(C(=O)Cc3nc(-c4ccc(F)c(C)c4)cn3-c3ccc(F)cc3)CC2)c1 , result: 7.36

// pEC50 lookup, compound = COc1cccc(-c2cn(-c3ccc(F)cc3)c(CC(=O)N3CCN(c4cc(OC)ccn4)CC3)n2)c1 , result: 6.97

* * *

target of assay: human recombinant mGluR5 (Homo sapiens)
protocol text: Positive modulation of mGluR5, calcium based FLIPR assay in HEK 293 cells
recorded conditions: EC50 of the modulation; HEK 293 cell line expressing human recombinant mGluR5; glutamate at approximately 5% basal stimulation; peak height of Ca release fluorescence signal
Please use 1 for EC50 under 40 nM and 0 for everything else, ties included.

Example entries begin here.
COc1cc(N2CCN(C(=O)Cc3nc(-c4ccc(F)c(C)c4)cn3-c3ccccc3)CC2)ncn1 :: 1
Cc1ccc(-c2cn(-c3ccc(F)cc3)c(CC(=O)N3CCN(c4ccccn4)CC3)n2)cc1 :: 1
O=C(Cc1nc(-c2ccc(F)cc2)cn1-c1ccc(F)cc1)N1CCN(c2cccnn2)CC1 :: 0
COc1ccc(-c2cn(-c3ccc(F)cc3)c(CC(=O)N3CCN(c4ccccn4)CC3)n2)cc1 :: 1

From here, focus on the item given below.
Determine whether this compound shows EC50 lower than 40 nM (ties excluded): COc1cnc(N2CCN(C(=O)Cc3nc(-c4ccc(C)cc4)cn3-c3ccc(F)cc3)CC2)nc1
1

* * *

target of assay: human recombinant mGluR5 (Homo sapiens, UniProt P41594)
protocol text: Positive modulation of mGluR5, calcium based FLIPR assay in HEK 293 cells
recorded conditions: EC50 of the modulation; HEK 293 cell line expressing human recombinant mGluR5; glutamate at approximately 5% basal stimulation; peak height of Ca release fluorescence signal
endpoint name: EC50
Include the unit after the number when you answer.

Completed entries (count: 3):
COc1cnc(N2CCN(C(=O)Cc3nc(-c4ccc(F)c(C)c4)cn3-c3ccccc3)CC2)nc1 [Example 7.04.46.] :: 0.021 µM
COc1ccnc(N2CCN(C(=O)Cc3nc(-c4ccc(F)cc4)cn3-c3ccc(F)cc3)CC2)c1 [Example 7.03.01.] :: 0.057 µM
Cc1cc(-c2cn(-c3ccc(F)cc3)c(CC(=O)N3CCN(c4ncccn4)CC3)n2)ccc1Cl [Example 7.04.17.] :: 0.021 µM

With those in mind, consider the next compound.
// EC50 lookup, compound = COc1cccc(-c2cn(-c3ccc(F)cc3)c(CC(=O)N3CCN(c4ncccn4)CC3)n2)c1 [Example 7.04.37.] , result: 0.046 µM

* * *

target of assay: human recombinant mGluR5 (Homo sapiens, UniProt P41594)
protocol text: Positive modulation of mGluR5, calcium based FLIPR assay in HEK 293 cells
recorded conditions: EC50 of the modulation; HEK 293 cell line expressing human recombinant mGluR5; glutamate at approximately 5% basal stimulation; peak height of Ca release fluorescence signal
Experimental: The positive modulation of mGluR5 is measured in a HEK 293 cell line expressing human recombinant mGluR5 and is detected with calcium based FLIPR assay. […] 20 μl of each compound solution are then transferred to the assay plate and the Ca2+ kinetic is measured to determine any intrinsic compound activity. […] The peak height of the Ca release related fluorescence signal (9-66) is used for the EC50. The EC50 of the modulation is calculated over a nonlinear regression with GraphPad Prism (Table 1).
pEC50: −log10 of the molar value.
Label False if pEC50 falls below 7; label True in every other case.

Example entries begin here.
Cc1cc(-c2cn(-c3ccc(F)cc3)c(CC(=O)N3CCN(c4ncncn4)CC3)n2)ccc1F [Example 7.04.28.] :: True
Cc1cc(-c2cn(-c3ccc(F)cc3)c(CC(=O)N3CCN(c4ccccn4)CC3)n2)ccc1F [Example 7.04.23.] :: True
COc1ccc(-c2cn(-c3ccccc3)c(CC(=O)N3CCN(c4ccccn4)CC3)n2)cc1 [Example 7.04.30.] :: False
Cc1cc(-c2cn(-c3ccccc3)c(CC(=O)N3CCN(c4ccccn4)CC3)n2)ccc1F [Example 7.04.42.] :: True
COc1ccc(-c2cn(-c3ccccc3)c(CC(=O)N3CCN(c4ncncn4)CC3)n2)cc1 [Example 7.04.32.] :: False

I'd appreciate it if you could say whether COc1ccnc(N2CCN(C(=O)Cc3nc(-c4ccc(F)c(C)c4)cn3-c3ccccc3)CC2)c1 [Example 7.04.45.] has pEC50 at least equal to 7.
True

I'd appreciate it if you could say whether Cc1ccc(-n2cc(-c3ccccc3)nc2CC(=O)N2CCN(c3ncccn3)CC2)cc1 [Example 7.01.04.] has pEC50 at least equal to 7.
False

I'd appreciate it if you could say whether COc1ccc(-c2cn(-c3ccc(F)cc3)c(CC(=O)N3CCN(c4ncc(F)cn4)CC3)n2)cc1 [Example 7.04.36.] has pEC50 at least equal to 7.
True

I'd appreciate it if you could say whether Cc1ccc(-c2cn(-c3ccc(F)cc3)c(CC(=O)N3CCN(c4cccnn4)CC3)n2)cc1 [Example 7.04.03.] has pEC50 at least equal to 7.
True

I'd appreciate it if you could say whether Cc1ccc(-c2cn(-c3ccc(F)cc3)c(CC(=O)N3CCN(c4ncncn4)CC3)n2)cc1 [Example 7.04.08.] has pEC50 at least equal to 7.
True

I'd appreciate it if you could say whether COc1ccnc(N2CCN(C(=O)Cc3nc(-c4ccc(C)cc4)cn3-c3ccc(F)cc3)CC2)c1 [Example 7.04.05.] has pEC50 at least equal to 7.
True

I'd appreciate it if you could say whether Cc1cc(-c2cn(-c3ccccc3)c(CC(=O)N3CCN(c4ncccn4)CC3)n2)ccc1F [Example 7.04.44.] has pEC50 at least equal to 7.
True

I'd appreciate it if you could say whether Cc1ccc(-c2cn(-c3ccc(F)cc3)c(CC(=O)N3CCN(c4ncccn4)CC3)n2)cc1 [Example 7.04.04.] has pEC50 at least equal to 7.
True

I'd appreciate it if you could say whether CCn1cc(-c2ccc(F)c(C)c2)nc1CC(=O)N1CCN(c2ncccn2)CC1 [Example 7.05.01] has pEC50 at least equal to 7.
False

I'd appreciate it if you could say whether Cc1cc(-c2cn(-c3ccc(F)cc3)c(CC(=O)N3CCN(c4cccnn4)CC3)n2)ccc1Cl [Example 7.04.19.] has pEC50 at least equal to 7.
True

I'd appreciate it if you could say whether Cc1cc(-c2cn(-c3ccc(F)cc3)c(CC(=O)N3CCN(c4ccccn4)CC3)n2)ccc1Cl [Example 7.04.18.] has pEC50 at least equal to 7.
True

I'd appreciate it if you could say whether COc1ccc(-c2cn(-c3ccc(F)cc3)c(CC(=O)N3CCN(c4ncc(OC)cn4)CC3)n2)cc1 [Example 7.04.16.] has pEC50 at least equal to 7.
True

I'd appreciate it if you could say whether O=C(Cc1nc(-c2ccc(F)cc2)cn1-c1ccc(F)cc1)N1CCN(c2ncccn2)CC1 [Example 7.01.02.] has pEC50 at least equal to 7.
True

I'd appreciate it if you could say whether COc1ccc(-c2cn(-c3ccc(F)cc3)c(CC(=O)N3CCN(c4cc(OC)ncn4)CC3)n2)cc1 [Example 7.04.14.] has pEC50 at least equal to 7.
True

* * *

Overview of reported pEC50 across a group of compounds:
target of assay: human recombinant mGluR5 (Homo sapiens, UniProt P41594)
protocol text: Positive modulation of mGluR5, calcium based FLIPR assay in HEK 293 cells
recorded conditions: EC50 of the modulation; HEK 293 cell line expressing human recombinant mGluR5; glutamate at approximately 5% basal stimulation; peak height of Ca release fluorescence signal
Reminder that pEC50 is minus the log10 of a molar concentration.

Completed entries (count: 5):
COc1cccc(-c2cn(-c3ccc(F)cc3)c(CC(=O)N3CCN(c4ccccn4)CC3)n2)c1 [Example 7.04.41.] :: 7.04
COc1cccc(-c2cn(-c3ccc(F)cc3)c(CC(=O)N3CCN(c4cc(OC)ncn4)CC3)n2)c1 [Example 7.04.38.] :: 6.97
COc1ccnc(N2CCN(C(=O)Cc3nc(-c4ccc(Cl)c(C)c4)cn3-c3ccc(F)cc3)CC2)c1 [Example 7.04.20.] :: 7.16
COc1cc(N2CCN(C(=O)Cc3nc(-c4ccc(C)cc4)cn3-c3ccc(F)cc3)CC2)ncn1 [Example 7.04.07.] :: 6.94
COc1ccc(-c2cn(-c3ccccc3)c(CC(=O)N3CCN(c4ncccn4)CC3)n2)cc1 [Example 7.04.33.] :: 6.95

// pEC50 lookup, compound = COc1ccc(-c2cn(-c3ccc(F)cc3)c(CC(=O)N3CCN(c4ncncn4)CC3)n2)cc1 [Example 7.04.15.] , result: 7.04

// pEC50 lookup, compound = COc1cccc(-c2cn(-c3ccc(F)cc3)c(CC(=O)N3CCN(c4ncncn4)CC3)n2)c1 [Example 7.04.40.] , result: 6.84

// pEC50 lookup, compound = COc1ccc(-c2cn(-c3ccccc3)c(CC(=O)N3CCN(c4cc(OC)ncn4)CC3)n2)cc1 [Example 7.04.29.] , result: 6.92

// pEC50 lookup, compound = COc1ccc(-c2cn(-c3ccccc3)c(CC(=O)N3CCN(c4ncc(OC)cn4)CC3)n2)cc1 [Example 7.04.35.] , result: 7.12

// pEC50 lookup, compound = COc1ccc(-c2cn(-c3ccccc3)c(CC(=O)N3CCN(c4ncc(F)cn4)CC3)n2)cc1 [Example 7.04.34.] , result: 7.02
